- assay.info: Inhibition of binding of biotinylated chicken galectin-1A to surface immobilized asialofetuin by solid phase assay
- Parameters: species or system Gallus gallus
measurement.label: IC50 (µM)
Give bare numbers, in µM.

Ask: Which IC50 reading was recorded for the substance LACTOSE, ANHYDROUS ?
Reply: 500

====

- assay.info: Inhibition of binding of biotinylated Viscum album agglutinin to surface immobilized asialofetuin by solid phase assay
For each entry below, report its pIC50 value.
Give bare numbers, as −log10 of the molar value.

compound.string	pIC50
O=C1NCc2ccc(cc2)CNC(=O)[C@@H]2O[C@@H](C/C=C/C[C@H]3O[C@H]1[C@@H](OCc1cn([C@@H]4O[C@H](CO)[C@@H](O[C@@H]5O[C@H](CO)[C@H](O)[C@H](O)[C@H]5O)[C@H](O)[C@H]4O)nn1)[C@H](OCc1ccccc1)[C@H]3OCc1ccccc1)[C@@H](OCc1ccccc1)[C@H](OCc1ccccc1)[C@H]2OCc1cn([C@@H]2O[C@H](CO)[C@@H](O[C@@H]3O[C@H](CO)[C@H](O)[C@H](O)[C@H]3O)[C@H](O)[C@H]2O)nn1	3.62
OC[C@H]1O[C@@H](O[C@H]2[C@H](O)[C@@H](O)[C@H](n3cc(-c4ccc(-c5cn([C@@H]6O[C@H](CO)[C@@H](O[C@@H]7O[C@H](CO)[C@H](O)[C@H](O)[C@H]7O)[C@H](O)[C@H]6O)nn5)cc4)nn3)O[C@@H]2CO)[C@H](O)[C@@H](O)[C@H]1O	3.89
O=C(/C=C/C(=O)N[C@@H]1O[C@H](CO)[C@@H](O[C@@H]2O[C@H](CO)[C@H](O)[C@H](O)[C@H]2O)[C@H](O)[C@H]1O)N[C@@H]1O[C@H](CO)[C@@H](O[C@@H]2O[C@H](CO)[C@H](O)[C@H](O)[C@H]2O)[C@H](O)[C@H]1O	3.26

Ask: I'd like to know its pIC50. The molecule in question is `C=CC[C@@H]1O[C@@H](C(=O)NCc2ccc(CNC(=O)[C@H]3O[C@H](CC=C)[C@H](OCc4ccccc4)[C@@H](OCc4ccccc4)[C@@H]3OCc3cn([C@@H]4O[C@H](CO)[C@@H](O[C@@H]5O[C@H](CO)[C@H](O)[C@H](O)[C@H]5O)[C@H](O)[C@H]4O)nn3)cc2)[C@H](OCc2cn([C@@H]3O[C@H](CO)[C@@H](O[C@@H]4O[C@H](CO)[C@H](O)[C@H](O)[C@H]4O)[C@H](O)[C@H]3O)nn2)[C@@H](OCc2ccccc2)[C@@H]1OCc1ccccc1`
Reply: 2.89
